Reference for the values: the nanobody polyreactivity screen of Harvey et al. (2022)

Test description: yeast display, Sf9 membrane polyspecificity reagent, FACS + sequencing; frameworks hold sequencing errors
Assay readout: polyreactivity (PSR sort gate)

Check out these entries, answers already filled in.
- QVQLVESGGGLVQAGGSLRLSCAASGRIFYQNVMGWYRQAPGKERELVAAITTSGGRTYYADSVKGRFTISRDNAKNTVYLQMNSLKPEDTAVYYCAAKASNRGYYYWGQGTQVTVSS: high polyreactivity
- QVQLVESGGGLVQAGGSLRLSCAASGSIFGYNVMGWYRQAPGKEWELVAAITYSGGSTYYADSVKGRFTISRDNAKNTVYLQMNSLKPEDTAVFYCNAVTLRRIYSNPEYDSWGQGTQVSVSS: high polyreactivity
- QVQLVESGGGLVQAGGSLRLSCAASGSTFSGNAMGWYRQAPGKEWELGATITITGGSTYYADSVKGRFTISRDNAKNTVYLQMNSLKPEDTAVYYCAKDYYAYSDYDYWGQGTQVTVSS: low polyreactivity
- QVQLVESGGGLVQAGGSLLLSCAPSGRTFPLNAMGWSRQAPGKERELVAAITWSGGRTYYADSVKGRFTISRDNAKNTVYLQMNSLKPEDTAVYYCAAKRTTWKIQSGYDYWGKGTQVTVSS: low polyreactivity

Now let's try a different one.
I would be grateful if you could share the reported polyreactivity (PSR sort gate) for QVQLVESGGGLVQAGGSLRLSCAASGSTFGAYAMGWYRQAPGKEREFVAGISVRGGSTYYADSVKGRFTISRDNAKNTVYLQMNSLKPEDTAVYYCAARRVDTRVHVRYRYYYWGQGTQVTVSS .
high polyreactivity

###

Test description: yeast display, Sf9 membrane polyspecificity reagent, FACS + sequencing; frameworks hold sequencing errors
Assay readout: polyreactivity (PSR sort gate)

* QVQLEESGGGLVQAGGSLRLSCAASGRIFPTYVMGWYRQAPGKERELVAAITSIDGRTYYADSVKGRFTISRDNAKNTVYLQMNSLKPEDTAVYYCAADYDYLSISEGYYWGQGTQVTVSS | low polyreactivity
* QVQLVESGGGLVQAGGSLRLSCAASGFIFKFYAMGWYRQAPGKETELVAAISKSGGRTYYADSVKGRFTISRDNAKNSVYLQMNSLKPEDTAVYYCNAPSVGAAFDYWGQGTQVTVSS | high polyreactivity
* QVQLVESGGGLVQAGGSLRLSCAASGRTFWYYGMGWYRQAPGKERELVAAISRSGGRTYYADSVKGRFTISRDNAKNTVYLQMNSLKPEDTAVYYCVASYRRTFDYWGHGTQVTVSS | high polyreactivity
* QVQLVESGGGLVQAGGSLRLSCAASGSIFEPNAMVWYRQAPGKERELVAVISIDGITYYADSVKGRFTISRDNAKNSVYLQMNSLKPEDTAVYYCAAYLGQGESYGAYDYWGQGTQVTVSS | low polyreactivity

For the sequence shown here, QVQRVESGVGLVQAGGSLRLSCAASGLTFLWYAMGWYRQAPGKERELVAAITSGGRTKYADSVKGRFTISRDNAKNTVYLQMNSLKPEDTAVYYCAAYPQWWGYDYWGQGTQVTVSS , give the reported polyreactivity (PSR sort gate).
high polyreactivity

###

Test description: yeast display, Sf9 membrane polyspecificity reagent, FACS + sequencing; frameworks hold sequencing errors
Assay readout: polyreactivity (PSR sort gate)

Reference set, count: 6
• QVQLVESGGGLVQAGGSLRLSCAASGRTFIKNAMGWYRQAPGKERELVAAINWSGTRTYYADSVKGRFTISRDNAKNTVYLQMNSLKPEDTAVYYCAKVIARYVRYDYWGQGTQVTVSS = high polyreactivity
• QDQLVESGGGLVQAGGRLRLSCAASGFTFHKYAMGWSRPAPGKDRELVAAITSSGGSTYYADSVKGRFTISRDYAKNTVYLQMTSLKPEDTAVYYCNARGGGRKSYDYWGQGTQVTVSS = high polyreactivity
• QVQLVESGGGLVQAGGSLRLSCAASGRIFGYYAMGWYRQAPGKERELVAGIDWSGGNTYYADSVKGRFTISRDNAKNTVYLQMNSLKPEDTAVYYCNTVGGRDTAWYDYWGQGTQVTVSS = low polyreactivity
• QVQLVESGGGLVQAGGSLRLSCAASGRIFDYYAMGWYRQAPGKERELVAAITRGGSTYYADSVKGRFTISRDNAKNTVYLQLNSLNPVDTEVYYCAASIGIRFIKYDYWGQGAQVTVSS = high polyreactivity
• QVQLVESGGGLVQAGGSLRLSCAASGIIFYLYAMGWYRQAPGKERELVAAITLSGSTTYYADSVKGRFTISRDNAKNTVYLQMNSLKPEDTAVYYCNADTPVRSDYWGQGTQVTVSS = low polyreactivity
• QVQLVESGGGLVQAGGSLRLSCAASGSTFSKYAMGWYRQAPVKERELVAGIRGRGGSAYYADSVKGRFTISRDNAKNTVYLQMNSLKPEDTAVYYCAKEARLWGQGTQVTVSS = low polyreactivity

Value lookup for polyreactivity (PSR sort gate); key = QVQLVQSGGGLVQAGGSLRLSCAASGRTLWSYVMGWYRQAPGKERELVAAITSGGTTYYADSVKGRFTISRDNAKNTVYLQMNSLKPEDTAVYYCNVYTKFVYAYDYWGQGTQVTVSS
high polyreactivity

Which polyreactivity (PSR sort gate) is reported for this sequence? QVQLEESGGGLVQAGGSLRLSCAAYGSIFSPYAMGWYRHAPGKERELVAAISGRGTSTYYADSVKGRFTISRDNAKNTVDLQMNTLKPEDTEVYYCAAVSYGRSGYDYWGQGTQVTVSS
high polyreactivity

Which polyreactivity (PSR sort gate) is listed for QVQLVESGGGLVQAGGSLRLSCAASGRTFWYNAMGWYRQAPGKERELVATISPGGRTYYADSVKGRFTISRDNAKNTVYLQMNSVKPEDTAVYYCDASSSFSRYGVVPYYYWGQGTQVTVSS ?
high polyreactivity

Would you mind telling me what polyreactivity (PSR sort gate) value was observed for QVQLVESGGGLVQAGGSLRLSCAASGIILSPYTMGWYRQAPGKERELVAGISRSGGTTYYADSVKGRFTISRDNAKNTVYLQMNSLKPEDTAVYYCAAGLIYGYSGYDSWGQGTQVTVSS ?
low polyreactivity

Bench note: what polyreactivity (PSR sort gate) did QVQLVETGGGLVQAGGSLRLSCADSGSICEQYTMGWYRQAPGKERELVAGSSSGGITNYADSVKGRFTISRDNAKNTVYLQMNSLKPEDTAVYYCAADNWYLAEYDYWGEGTQVTVSS show?
low polyreactivity

Would you mind telling me what polyreactivity (PSR sort gate) value was observed for QVQLVESGGGLVQAGGSHRLSCAASGSIFNRYAMGWYRQAPGKERELVAAITAGGSSTYYADSVKGRFTISRDNAKNTVYLQMNSLKPEDTAVYYCNAVWWHPKDYDYWGQGTQVTVSS ?
low polyreactivity

What value of polyreactivity (PSR sort gate) has been reported for the following sequence? QVQLVESGGGLVQAGGSLRLSCAASGRIITINAMGWYRQAPGKERELVAAITGSAASTYYADSVKGRFTISRDNAKNTVYLQMNILKPEDTAVYYCAVDRRPYSGHGYDYWGQGTQVTVSS
high polyreactivity

polyreactivity (PSR sort gate) lookup needed for QVLLVESAVGLVQAVGSLRLSCAASGSICYTNGMGWYRQAPGNERELVASITRSGGSTYYADSVKGRFTISRDNAKNSVYLQMNRLKPEDTAVYYCATSWGYRGLWGLRFDYWGQGTQVSVSS , thanks.
low polyreactivity

What measured polyreactivity (PSR sort gate) goes with QLQLVESGGGLGQAGGRLRLSCAASGSTFGRYAKGCYIQAPGKERELVAAITSDTGNTNFADSVKGRLTISRDNAKNTVYLQMNSLKPEDTAVYYCAAATFWVLWGDVIGNYDSWGQGTQVTVSS ?
low polyreactivity

Given the sequence QVQLVESGGGLVQARGSLRLSCAASGSIFRYNAMGWYRQAPGKERELVAAITSAGGSTYYADSVKGRFTISRDKAKNTVYLQMNSLKPEDTAVYYCAVRYYVYFPWPRVTERMYYWGQGTQVTVSS , what is its reported polyreactivity (PSR sort gate)?
high polyreactivity

Name the reported polyreactivity (PSR sort gate) value associated with the sequence QVQLVESGGGLVQAGGSLRLSCAASGSTLKSNVMGWYRQAPGKERELVAAISSSGGSTSYADSVKGRFTISRDNAKNTVYLLMKSLNPEDTAVYYCAARMGRYFWNSGVDYWGQGTQVTVSS
high polyreactivity

Give the measured polyreactivity (PSR sort gate) of QVQLVESGGGLVQAGGSHRLSCAASGIIYYYNTMGWYRQAPGKEREFVAAISNSGGRTYYADSVKGRFTISRDNAKNTVYLQMNSLKPEDTAVYYCAARYVLFSNRFDYWGQGTQVTVSS .
high polyreactivity

// returns reported polyreactivity (PSR sort gate) for input QVQLVESGGGLVQAGGSLRLSCAASGFIVRRYAMGWYRQAPGKERELVAAITSSGTSTYYADSVKGRFTISRDTAKYTVYLQMNSLKPEDTAVYYCAAVYQYTHYYSNYRYWGQGTQVTVSS
high polyreactivity

Request the reported polyreactivity (PSR sort gate) associated with QVQLVESGGGLVQAGGSLRLSCAASGSILGYNAMGWYRQAPGKEREFVAAITYSGGTTYYADSVKGRFTISRDNAKNTVYLQMNSLKPEDTAVYYCAADYSVYDEFDYWGQGTQVTVSS
high polyreactivity

Fill blank: measured polyreactivity (PSR sort gate) of the sequence QVQLVESGGGLVQAGGSLRVSCAASGRILPRYAMGWYRQAPGKEREFVARIDSGGSTNYADSVKGRFTISRDNAKNTVYIQMNSLKPEDTAVYYCAAVGTAQAYAYFTYGYDYWGQGTQVTVSS is ____.
low polyreactivity
